This collection of values is drawn from ChEMBL document CHEMBL3988442.

- testSystem: Proteasome subunit beta (Trypanosoma cruzi) (UniProt O96673)
- Sequence (whole entry): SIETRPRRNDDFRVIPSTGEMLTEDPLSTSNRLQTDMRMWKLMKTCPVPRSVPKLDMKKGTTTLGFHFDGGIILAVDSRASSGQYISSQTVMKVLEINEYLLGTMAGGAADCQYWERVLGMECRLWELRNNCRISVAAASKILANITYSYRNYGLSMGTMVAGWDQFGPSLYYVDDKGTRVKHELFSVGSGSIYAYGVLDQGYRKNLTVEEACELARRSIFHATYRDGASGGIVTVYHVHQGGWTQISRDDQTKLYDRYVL
- assayInfo: Trypanosoma cruzi proteasome chymotrypsin-like activity (TcProtChymo) assay. Note: in the data most compounds retested in dose-response had high values.
- Type: functional
- Set-up: scale not given: direction of the effect not stated beside the values
- conditionsUsed: 9.37 µM
Entries and their Percent Effect
Answer in %, number only, no unit symbol.

- compound: "O=C(NCC1CCSCC1)N(CCCO)C1CCc2ccccc21 (stereo not given)"
  testSystem: "Proteasome subunit beta (Trypanosoma cruzi) (UniProt O96673)"
  readoutLabel: "Percent Effect"
  observedMeasurement: 9.92
- compound: "Fc1cccc(-c2nc(CN3CCn4c(nnc4C4CC4)C3)co2)c1"
  testSystem: "Proteasome subunit beta (Trypanosoma cruzi) (UniProt O96673)"
  readoutLabel: "Percent Effect"
  observedMeasurement: 8.4
- compound: "CC(c1nc(C2CC2)no1)N1CCN(Cc2ccsc2)CC1 (stereo not given)"
  testSystem: "Proteasome subunit beta (Trypanosoma cruzi) (UniProt O96673)"
  readoutLabel: "Percent Effect"
  observedMeasurement: 3.67

Bench note: what Percent Effect did `CNc1nc2c(s1)C(=O)CN(C(=O)NCc1ccccc1)C2` show?
9.41

###

- Test system: Trypanosoma cruzi
- assayInfo: Trypanosoma cruzi phosphomannomutase and mannose-1-phosphate guanylyltransferase assay
- Type: functional
- Design: scale not given: direction of the effect not stated beside the values
- conditionsUsed: 10 µM
Entries and their Percent Effect

Some compounds with known Percent Effect results, for comparison:
- compound: "CCOCC1CC2(CCN(Cc3ccccn3)CC2)CO1 (stereo unspecified)"
  readoutLabel: "Percent Effect"
  observedMeasurement: "0.292%"
- compound: "CN(C)CC(=O)N1CCC2(CC(=O)N(c3cccc(C#N)c3)C2)C1 (stereo unspecified)"
  readoutLabel: "Percent Effect"
  observedMeasurement: "-4.58%"
- compound: "CCc1cc(O)nc(C2CCCN2C(=O)c2cc(C)no2)n1 (stereo unspecified)"
  readoutLabel: "Percent Effect"
  observedMeasurement: "-2.76%"
- compound: "Cc1nn(-c2ccccc2)c(C)c1CNC1CCc2ncnn2C1 (stereo unspecified)"
  readoutLabel: "Percent Effect"
  observedMeasurement: "4.79%"

Bench note: what Percent Effect did O=C(c1cc(C2CC2)[nH]n1)N1CCCC(n2cncn2)C1 (stereo unspecified) show?
4.6%

Bench note: what Percent Effect did `Cc1cccc(CN2C(=O)CCC23CCN(Cc2cccn2C)CC3)n1` show?
-0.75%

###

- testSystem: Proteasome subunit beta (Trypanosoma cruzi) (UniProt O96673)
- assayInfo: Trypanosoma cruzi proteasome chymotrypsin-like activity (TcProtChymo) assay. Note: in the data most compounds retested in dose-response had high values.
- Format: functional
- Set-up: scale not given: direction of the effect not stated beside the values
- conditionsUsed: 9.37 µM
Entries and their Percent Effect
Answer in %, number only, no unit symbol.

- compound: "CCn1ccnc1CN1CCCN(C(=O)c2cc(Cl)c[nH]2)CC1"
  unitLabel: "%"
  observedMeasurement: 1.79
- compound: "O=C(NCC1CCOC1)Nc1ccc(OCC(F)(F)F)nc1 (configuration not stated)"
  unitLabel: "%"
  observedMeasurement: 7.76
- compound: "CCc1nccn1-c1cncc(C2CCCN2Cc2cccnc2)n1 (configuration not stated)"
  unitLabel: "%"
  observedMeasurement: 13.3

Bench note: what Percent Effect did `O=C(c1ccc(F)cc1)N1CCC2(CCCN2CC2CC2)CC1` show?
14

Bench note: what Percent Effect did COCC1CC2(CCN(Cc3ccc(OC)cc3)CC2)CN1C(C)C (configuration not stated) show?
0.0883

Bench note: what Percent Effect did Cc1cc(OCC(=O)N2CCCC(c3ccn[nH]3)C2)no1 (configuration not stated) show?
6.36

###

- testSystem: Sialic acid-binding Ig-like lectin 9 (Homo sapiens) (UniProt Q9Y336)
- Sequence (Q9Y336 whole entry): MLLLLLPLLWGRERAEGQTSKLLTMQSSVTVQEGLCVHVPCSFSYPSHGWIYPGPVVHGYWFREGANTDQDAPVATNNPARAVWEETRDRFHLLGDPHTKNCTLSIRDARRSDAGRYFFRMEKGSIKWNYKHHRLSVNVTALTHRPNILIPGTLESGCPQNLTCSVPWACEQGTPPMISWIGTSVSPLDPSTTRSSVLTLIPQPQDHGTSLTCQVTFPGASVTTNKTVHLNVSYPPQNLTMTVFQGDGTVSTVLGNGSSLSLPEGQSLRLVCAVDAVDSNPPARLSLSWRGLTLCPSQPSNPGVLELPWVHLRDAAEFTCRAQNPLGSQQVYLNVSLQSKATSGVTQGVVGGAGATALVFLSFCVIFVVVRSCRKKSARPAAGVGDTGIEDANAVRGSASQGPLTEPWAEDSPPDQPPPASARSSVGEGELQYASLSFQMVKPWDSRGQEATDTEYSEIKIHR
- assayInfo: Hs-Siglec9 ALPHAscreen SOP 20170721
- Parameters: scale not given: direction of the effect not stated beside the values
- conditionsUsed: 10 µM
readoutLabel: Percent Effect (%)
Answer in %, number only, no unit symbol.

Some molecules with known Percent Effect results, for comparison:
- molecule: "CC(C)CN(Cc1nc2c(cnn2C)c(=O)[nH]1)C(C)C"
  Percent Effect, %: -1.47
- molecule: "CN(C)C(=O)CCC(=O)NCc1cccnc1-n1cnc2ccccc21"
  Percent Effect, %: -1.92
- molecule: "Cc1ccc(NC(=O)C(C)N2CCCN(c3nccs3)CC2)c(C)c1 (stereo unspecified)"
  Percent Effect, %: -3.51
- molecule: "CCc1ncc2c(n1)CN(CC(=O)Nc1ccc(Cl)cn1)CC2"
  Percent Effect, %: 4.13
- molecule: "Cn1cccc1-c1cc(C(=O)N2CCCC2c2cccnc2)[nH]n1 (stereo unspecified)"
  Percent Effect, %: 15.5

Please look at the following molecule next.
Bench note: what Percent Effect did CC(C)NC(=O)C1CN(C(=O)N2CCCC2)CC12CCOCC2 (stereo unspecified) show?
-4.49

###

Entries and their Percent Effect
- testSystem: AMP-activated protein kinase, AMPK (Homo sapiens) (UniProt P54646+O43741+P54619+Q9UGJ0+Q9Y478+Q13131+Q9UGI9)
- assayInfo: AMP-dependent Kinase enzyme assay. An in vitro enzyme assay that detects ADP turnover that is directly proportional to AMPK activity. This uses naive AMPK that is activated during the assay with MK-8722
- Type: functional
- Design: scale not given: direction of the effect not stated beside the values
- conditionsUsed: 30 µM

Some compounds with known Percent Effect results, for comparison:
- compound: "FC(F)(F)Oc1cccc(CNCc2ccc(-n3cncn3)nc2)c1"
  observedMeasurement: "12.8%"
- compound: "COc1cc(Cl)cc(CN2CCCC(N3CCCC3)C2)c1OC (stereo unspecified)"
  observedMeasurement: "4.91%"
- compound: "N#CC1(NC(=O)CN2CCc3c(ncn3C3CC3)C2)CCCC1"
  observedMeasurement: "-7.46%"
- compound: "COc1ccc(C2(C(=O)N3CC(c4cccnc4)C3)CC2(C)C)cc1 (stereo unspecified)"
  observedMeasurement: "-5.88%"
- compound: "COc1cccc([C@@]2(O)CC[C@@H]3CN(C(=O)c4c[nH]nc4C)C[C@@H]32)c1"
  observedMeasurement: "10.8%"

Bench note: what Percent Effect did COc1cc(OC)cc(-c2cccc3c2OC(CN)C3)c1 (stereo unspecified) show?
-5.59%

Bench note: what Percent Effect did `COCC(=O)NCCc1nc2cc(-c3ccc(OC)cc3)ncn2n1` show?
8.07%

Bench note: what Percent Effect did `O=C(CCN1CCCCO1)N1CC[C@H](O)[C@@H](O)C1` show?
-7.38%

Bench note: what Percent Effect did CC(C(=O)NCC(C)(C)c1ccc2c(c1)OCCO2)n1cncn1 (stereo unspecified) show?
11.3%

Bench note: what Percent Effect did CC(C)c1nnc(CN2CC(n3cccn3)Cc3ccccc32)o1 (stereo unspecified) show?
-5.15%

Bench note: what Percent Effect did Cc1ccc(N2CCCC(Nc3nn4cc(C)nc4s3)C2)nn1 (stereo unspecified) show?
8.12%

###

- testSystem: AMP-activated protein kinase, AMPK (Homo sapiens) (UniProt P54646+O43741+P54619+Q9UGJ0+Q9Y478+Q13131+Q9UGI9)
- assayInfo: AMP-dependent Kinase enzyme assay. An in vitro enzyme assay that detects ADP turnover that is directly proportional to AMPK activity. This uses naive AMPK that is activated during the assay with MK-8722
- Format: functional
- Parameters: scale not given: direction of the effect not stated beside the values
- conditionsUsed: 30 µM
Entries and their Percent Effect
Answer in %, number only, no unit symbol.

Bench note: what Percent Effect did CN(C)Cc1cn(-c2ccccc2C(=O)NCC2CCCCN2C)cn1 (stereo unspecified) show?
-15.9

Bench note: what Percent Effect did `Cc1ccc(F)c(CNc2ccn(CCC(N)=O)n2)c1` show?
-4.33

Bench note: what Percent Effect did `COc1ccnc(CNc2nc(C)nc(C)c2C)c1` show?
-6.37

Bench note: what Percent Effect did `O=C(Nc1ccc(F)cc1F)NC1(CO)CCOCC1` show?
4.61

Bench note: what Percent Effect did `CC(C)[C@@H]1CN(Cc2cnc3c(S(C)(=O)=O)cnn3c2)C[C@H]1N(C)C` show?
-8.81

Bench note: what Percent Effect did `O=S(=O)(NCc1ccnc(-n2ccnc2)c1)c1cncc(Cl)c1` show?
0.0234

###

- testSystem: Ubiquitin-activating enzyme e1, putative (Leishmania donovani (strain BPK282A1)) (UniProt E9BSI1)
- Sequence (E9BSI1 as listed by the source): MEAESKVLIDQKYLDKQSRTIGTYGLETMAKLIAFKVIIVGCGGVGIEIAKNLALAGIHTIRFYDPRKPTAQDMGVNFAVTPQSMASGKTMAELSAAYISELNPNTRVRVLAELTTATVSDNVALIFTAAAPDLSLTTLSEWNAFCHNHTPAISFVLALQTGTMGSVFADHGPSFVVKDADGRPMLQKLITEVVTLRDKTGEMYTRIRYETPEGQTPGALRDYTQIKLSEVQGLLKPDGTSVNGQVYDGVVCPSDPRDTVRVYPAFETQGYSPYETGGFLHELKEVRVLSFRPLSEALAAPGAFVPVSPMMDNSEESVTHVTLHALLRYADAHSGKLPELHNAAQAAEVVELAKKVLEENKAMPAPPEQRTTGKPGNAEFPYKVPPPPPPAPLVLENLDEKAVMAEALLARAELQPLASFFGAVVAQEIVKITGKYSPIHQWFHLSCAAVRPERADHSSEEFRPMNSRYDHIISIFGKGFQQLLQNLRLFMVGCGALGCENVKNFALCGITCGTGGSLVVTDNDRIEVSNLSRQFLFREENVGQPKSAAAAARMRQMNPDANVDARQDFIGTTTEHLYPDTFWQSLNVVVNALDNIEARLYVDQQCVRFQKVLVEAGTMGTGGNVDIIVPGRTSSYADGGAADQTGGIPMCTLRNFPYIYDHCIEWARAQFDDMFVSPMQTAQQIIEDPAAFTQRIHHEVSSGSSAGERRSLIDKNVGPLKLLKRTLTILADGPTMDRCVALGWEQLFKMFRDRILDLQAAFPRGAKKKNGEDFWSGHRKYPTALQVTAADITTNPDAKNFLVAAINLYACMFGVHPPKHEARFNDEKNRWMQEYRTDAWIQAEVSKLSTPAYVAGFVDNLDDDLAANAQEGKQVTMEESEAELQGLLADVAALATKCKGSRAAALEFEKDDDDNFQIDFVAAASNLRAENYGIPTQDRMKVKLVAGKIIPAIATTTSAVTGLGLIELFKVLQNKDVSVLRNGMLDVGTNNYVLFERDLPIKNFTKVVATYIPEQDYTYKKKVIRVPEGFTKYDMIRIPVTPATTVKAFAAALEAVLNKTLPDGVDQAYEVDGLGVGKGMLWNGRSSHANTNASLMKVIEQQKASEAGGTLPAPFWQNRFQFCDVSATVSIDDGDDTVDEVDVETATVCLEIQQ
- assayInfo: Leishmania donovani Ubiquitin Activating Enzyme (LdE1)
- Assay type: functional
- Parameters: scale not given: direction of the effect not stated beside the values
- conditionsUsed: 30 µM
Entries with a potency or affinity are not part of this list.
readoutLabel: Percent Effect (%)
Answer in %, number only, no unit symbol.

Some compounds with known Percent Effect results, for comparison:
- compound: "CN(C)CC1CN(Cc2coc(-c3ccccc3Cl)n2)CCO1 (stereo unspecified)"
  observedMeasurement: 13.3
- compound: "O=c1cc(Cn2cncn2)nc2n1CCCN(CC1CC1)C2"
  observedMeasurement: 11.7
- compound: "COc1cccc(-n2nnc(C(=O)N3CCNC(=O)C3)c2C)c1"
  observedMeasurement: 15.4

Bench note: what Percent Effect did O=C(NCCc1cccnc1)N1CCCC1c1ccsc1 (stereo unspecified) show?
17.9

Bench note: what Percent Effect did OC(COCc1ccccc1F)CN1CCc2c(ncn2C2CC2)C1 (stereo unspecified) show?
-5.33

Bench note: what Percent Effect did `NC(=O)NC(=O)CCN1CCCN(c2nccs2)CC1` show?
10.7
